Values were extracted from PubChem BioAssay AID1345082.

# experimental.protocol: Cytotoxic Profiling in NIH 3T3 Cell Line of Diverse Libraries Using Quantitative High-Throughput Screening; also: nearly all actives have a fitted effect of over 55% in size
# applied.conditions: NIH 3T3 viability, CellTiter-Glo ATP luminescence, 48-72 h; series mostly up to 96.7 µM
Among all 94,000 compounds or so, about 4,000 (4.3%) were called active. Inconclusive results (about 29%) are left out. Calls follow the shape of the dose curve; as a rule, active = well fitted inhibition curve with a large enough effect; inconclusive = small, poorly fitted or top-dose-only effect; inactive = no such curve, though single readings can be large or run the other way. What follows is part of a selection rich in actives, with near analogues and random picks from the rest.
Returns: one label drawn from active, inactive

{"columns": ["molecule", "discrete.label"],
 "data": [
  ["CCc1nnc([C@@H]2CC(F)(F)CN2C(=O)c2cc(C)oc2C)o1", "inactive"],
  ["O=C(CN1C(=O)C(c2ccccc2)=NC12CCCC2)Nc1ccc2c(c1)OCCO2", "inactive"],
  ["CN1C(=O)CC[C@]2(C(=O)NCc3ccc4c(c3)OCO4)CCCC[C@@H]12", "inactive"],
  ["Cn1ncc2c(C(=O)NCC(F)(F)F)cc(-c3ccc(C(F)(F)F)cc3)nc21", "inactive"],
  ["CN(C)C(=O)c1ccc2oc(-c3ccnc(Cl)c3)nc2c1", "active"]
]}

Look up the recorded call for O=C(c1cccc(F)c1)N1CCCC(CN2CCOCC2)CC1 (configuration not stated) in this test.
inactive

What call does the record list for CCCN(CC1CCOC1)C(=O)Nc1cc(F)ccc1F (configuration not stated) ?
inactive

Which outcome did this test record for the molecule CN(C)C[C@@H]1CN(C)C[C@H]1NC(=O)c1cnn(C)c1 ?
inactive

// outcome(item) with item = CCc1cc(=O)n(CC(=O)Nc2ccccc2F)c(-c2cccc(F)c2)n1
inactive

Field: outcome | Entry: O=C(CCC1CCCN(S(=O)(=O)c2ccc(F)cc2)C1)NC1CCS(=O)(=O)C1 (configuration not stated)
inactive

Per the assay record, what outcome was assigned to COCCN1C(=O)c2cccn2CC1CNC(=O)c1cc2ccccc2[nH]1 (configuration not stated) ?
inactive

Hello, I am checking results. What call was entered for CC(C)CNC(=O)N1CCCC(c2nc(C(C)C)no2)CCNC(=O)CC1 (configuration not stated) ?
inactive
